Tested on: RPMI-8226
Assay: NCI tumour cell line growth inhibition, 48 h
Calls of active or inactive are those of the source. No stated cut-off is given here; in the data, active = GI50 up to about 1.1 µM and inactive = higher.
PARAMETER_MEASURED: GI50

> print(dat)
                                   molecule  parameter.measured  recorded.measurement
1  COc1cc(-c2c(C)c(C)nc(OC)c2C#N)cc(OC)c1OC                GI50    37.4 µM (inactive)
2  COC(=O)/C(=N\Nc1nnc(C)n1N)C(C#N)c1ccc(Cl)cc1 (centres undefined)                GI50   > 100 µM (inactive)
3  CC(C)(C)NCc1cc(Nc2ccnc3cc(Cl)ccc23)cc(-c2ccc(Cl)cc2)c1O                GI50    1.69 µM (inactive)
4  NC1CCCCC1NCCNC1CCCCC1N (centres undefined)                GI50   > 100 µM (inactive)
5  CC1CN=C(N(C(=O)Nc2ccc(Cl)cc2)c2cccc(Cl)c2)S1 (centres undefined)                GI50    > 10 µM (inactive)
6  CC1=C(/C(C)=N/NS(=O)(=O)c2ccc(C)cc2)Sc2ccccc2N1                GI50    56.8 µM (inactive)
7  CC(=O)NC(c1nc2cc(C)c(C)cc2[nH]1)c1nc2cc(C)c(C)cc2[nH]1                GI50    4.57 µM (inactive)
8  CCOC(=O)/C(C(=O)c1ccccc1)=C1\N[C@H](C(=O)OCC)CS1                GI50   > 100 µM (inactive)
9       CS(=O)(=O)C(=Cc1ccccc1Cl)S(C)(=O)=O                GI50   > 100 µM (inactive)

---

System: 786-0
Experiment: NCI tumour cell line growth inhibition, 48 h
Active and inactive are the calls of the source. No stated cut-off is given here; in the data, active = GI50 up to about 1.1 µM and inactive = higher.
PARAMETER_MEASURED: GI50

> print(dat)
                                   molecule  system  recorded.measurement
1  O=C1C(=O)N(c2ccc(Cl)cc2)C(=O)C(=O)C1c1nc2ccccc2s1   786-0   > 100 µM (inactive)
2   Cc1cc2c(=O)cc(-c3ccncc3)oc2c(C(N)=O)c1C   786-0   > 100 µM (inactive)
3  O=C1c2cc3ccccc3cc2C2(c3ccc(Cl)cc3)NCCN12 (stereo not given)   786-0    38.1 µM (inactive)
4  CC1=C(C(=O)NCc2ccccc2)C(c2ccc([N+](=O)[O-])cc2)C(C(=O)NCc2ccccc2)=C(C)N1   786-0    44.2 µM (inactive)
5  Cc1nn(C(=O)c2ccc(Cl)cc2)c2c1C(c1ccco1)SC(=N)N2 (stereo not given)   786-0    > 10 µM (inactive)

---

Tested on: Hs-578T
Assay: NCI tumour cell line growth inhibition, 48 h
Activity calls are given as the source filed them. Cut-off read from the data, not from the text of the source: active = GI50 up to about 1.1 µM and inactive = higher.
# GI50 per entry
PARAMETER_MEASURED: GI50

> print(dat)
                                   compound  recorded.measurement
1  CC1=CC2(O)OC3(CC2=C(C)C)C(C)CCC13 (stereo not given)   > 100 µM (inactive)
2               c1ccc2c(c1)Cn1c-2nc2ccccc21   > 100 µM (inactive)
3  CN(C)P(=O)(Oc1ccc(CC(NC(=O)OCc2ccccc2)C(=O)OCc2ccccc2)cc1)N(C)C (stereo not given)    24.4 µM (inactive)
4  CCO/C=N/NC(=O)CSc1nc2ccc(I)cc2c(=O)n1Cc1ccccc1    34.6 µM (inactive)
5  O=C(NCCCCCCNC(=O)c1cc(-c2ccccc2)nc2ccccc12)c1cc(-c2ccccc2)nc2ccccc12    40.6 µM (inactive)

---

System: SK-MEL-2
Assay: NCI tumour cell line growth inhibition, 48 h
The source made the active and inactive calls. Rule as the data show it: active = GI50 up to about 1.1 µM and inactive = higher.
Outcomes: TRUE for active, FALSE for inactive

> print(dat)
                                    compound  classification
 1  Cc1nc2ccc([N+](=O)[O-])cc2c(=O)n1C(=S)Nc1cccc(Cl)c1           FALSE
 2  CC1=C(/C(C)=N/NS(=O)(=O)c2ccc(C)cc2)Sc2ccccc2N1           FALSE
 3  O=C1CC(c2cccc(F)c2)Nc2cc3c(cc21)OCO3 (stereo not given)            TRUE
 4  NC(=O)NC1C(C(N)=O)N(Cc2ccccc2)C(=O)N1Cc1ccccc1 (stereo not given)           FALSE
 5  COc1ccc(NC(=O)C(=O)C(C(=O)c2ccccc2)C2OC(=O)c3ccccc32)c([N+](=O)[O-])c1 (stereo not given)           FALSE
 6  CC1=CC2(O)OC3(CC2=C(C)C)C(C)CCC13 (stereo not given)           FALSE
 7      Cc1ccc2c(=O)cc(-c3cccc(F)c3)[nH]c2n1            TRUE
 8  O=C1CCCc2cc3c(cc21)CC1(C3)Cc2cc3c(cc2C1)C(=O)CCC3           FALSE
 9  C/C(=N\N(c1ccccc1)c1ccccc1)c1c(O)cc(C)oc1=O           FALSE
10  CCCCCc1c(CCCC)c(=O)[nH]c2cc(CNCC(OC)OC)ccc12           FALSE

---

Tested on: 786-0
Assay: NCI tumour cell line growth inhibition, 48 h
Active and inactive are the calls of the source. Cut-off read from the data, not from the text of the source: active = GI50 up to about 1.1 µM and inactive = higher.

MOLECULE	GI50
COC(=O)C12CCC(CC1=O)C2(C)C (stereo not given)	> 100 µM (inactive)
CCOC(=O)P(=O)(O)c1ccc(N(C)Cc2ccccc2)cc1	> 100 µM (inactive)
O=C1CC[C@H]2CNC(=O)C[C@H]2C1	> 100 µM (inactive)
Cc1ccc(Cl)c2c(=O)c3ccc(N)cc3sc12	24.9 µM (inactive)
CSc1nc(NC2OC(COC(C)=O)C(OC(C)=O)C(OC(C)=O)C2OC(C)=O)c(/N=C\C=N/c2c(NC3OC(COC(C)=O)C(OC(C)=O)C(OC(C)=O)C3OC(C)=O)nc(SC)n(C)c2=O)c(=O)n1C (stereo not given)	34 µM (inactive)
C=CCC12CCC(=O)C=C1CCC1(C2)OCCO1 (stereo not given)	> 100 µM (inactive)
CCO/C=N/NC(=O)CSc1nc2ccc(I)cc2c(=O)n1Cc1ccccc1	56 µM (inactive)
[N-]=[N+]=CC(=O)OC1CCOCC1	> 100 µM (inactive)
COC(=O)CC1c2ccccc2N2C(=O)Cc3c([nH]c4ccccc34)C12 (stereo not given)	58.6 µM (inactive)
O=C(Nc1ccccc1F)c1cc2ccc(O)cc2o/c1=N\c1cccc(C(F)(F)F)c1	4.57 µM (inactive)

---

Test system: A549
Assay: NCI tumour cell line growth inhibition, 48 h
Calls of active or inactive are those of the source. No stated cut-off is given here; in the data, active = GI50 up to about 1.1 µM and inactive = higher.
Parameter GI50: see the listing below.

MOLECULE	GI50
Clc1ccc2c(c1)N(CCCN1CCCC13CCCCC3)c1ccccc1S2	17.3 µM (inactive)
COC(=O)C1(C(=O)OC)CC(=O)c2c(OC(=O)c3cccc(OC)c3C#N)ccc(OC(=O)c3cccc(OC)c3C#N)c2C1	> 100 µM (inactive)
COC(=O)c1c(C)cccc1C1CN=NC12Cc1ccc(C)c(C)c1C2=O (stereo not drawn)	18.2 µM (inactive)
CCOC(=O)C(C)c1nc2ccc(C(F)(F)F)cc2[nH]c1=O (stereo not drawn)	73.5 µM (inactive)
CCCCCCCCCCCC(=O)OCC1OC(n2cc(F)c(=O)[nH]c2=O)C(NC(=O)OCc2ccccc2)C(O)C1O (stereo not drawn)	20.8 µM (inactive)
CCOC(=O)NC(=O)c1cn(C2OC(COC(=O)CCCCCCCCC(=O)OCC3OC(n4cc(C(=O)NC(=O)OCC)c(=O)[nH]c4=O)C(O)C3O)C(O)C2O)c(=O)[nH]c1=O (stereo not drawn)	> 100 µM (inactive)
Cc1cccc2c1Oc1ncccc1C2NC(=O)CN(C)C (stereo not drawn)	> 10 µM (inactive)
CC(C)(C)c1cc(OCc2nn3c(Cc4ccccc4)nnc3s2)c(Cl)cc1OCc1nn2c(Cc3ccccc3)nnc2s1	29.7 µM (inactive)
Cc1ccc(-c2c(C#N)c(-c3ccccc3)c(C#N)c(=O)n2NS(=O)(=O)c2ccc(C)cc2)cc1	34.4 µM (inactive)
CCOC(=O)NN(C(=O)OCC)C(C(=O)C1=CCCCC1)N(NC(=O)OCC)C(=O)OCC	> 100 µM (inactive)
C[C@@]1(O)C[C@@H](N2C(=O)O[C@@H](c3ccccc3)[C@H]2c2ccccc2)[C@@H]1COCc1ccccc1	22.6 µM (inactive)
N#CC1C2CCC3(CC2CCN1C(=O)c1ccccc1)OCCO3 (stereo not drawn)	> 100 µM (inactive)
COc1cc2c(cc1C[C@H]1[C@@H]3C[C@H]4c5c(c6ccccc6n5C)C[C@@H]([C@@H]3CO[C@]1(C)OC(C)=O)N4C)c1c(n2C)C2C[C@H]3C(C(C)=O)=COC[C@H]3[C@H](C1)N2C	> 25 µM (inactive)
CC1(C)CC(=O)c2c(N)n[nH]c2C1	> 100 µM (inactive)
CC(NC1=NCCO1)c1ccccc1Cl (stereo not drawn)	> 100 µM (inactive)
O=c1cccccc1NCCCCCCCCCNc1cccccc1=O	9.66 µM (inactive)
N#C/C(=C\NC(=S)Nc1ccc(S(=O)(=O)Nc2ccccn2)cc1)C(N)=O	> 100 µM (inactive)
COc1ccc(NC(=O)C(=O)C(C(=O)c2ccccc2)C2OC(=O)c3ccccc32)c([N+](=O)[O-])c1 (stereo not drawn)	> 100 µM (inactive)
NC(=S)N/N=C(\C(=O)Nc1ccc(Cl)c(Cl)c1)C1=NN(c2ccccc2)C(c2cccc([N+](=O)[O-])c2)CC1=O (stereo not drawn)	75.2 µM (inactive)
COCCOC(=O)c1c(C)[n+]([O-])c2cc(Cl)c(Cl)cc2[n+]1[O-]	12.7 µM (inactive)
COc1cc2c(cc1OCCCOS(C)(=O)=O)N=C[C@@H]1CCCN1C2=O	> 100 µM (inactive)
Cc1cccc2c(=O)cc(-c3ccccc3)[nH]c12	6.11 µM (inactive)
CN(CCc1ccc(Cl)c(Cl)c1)[C@H]1CCCC[C@H]1N1CCCC1	> 100 µM (inactive)
CNC(=O)OCc1c(COC(=O)NC)c(-c2ccc(-c3ccccc3)cc2)n(C)c1C	1.9 µM (inactive)
N#Cc1c(=O)c2ccccc2n2ccccc12	29.8 µM (inactive)
Nc1ccc2nc(N)n[n+]([O-])c2c1	> 100 µM (inactive)
CC1C(OS(=O)(=O)c2ccc3nc(S)sc3c2)CC2C3(C)CCC2(C(C)C(=O)O)C(O)C13 (stereo not drawn)	21.7 µM (inactive)
COc1cc2c(cc1OC)[C@]1(O)C(=O)c3ccc4c(c3O[C@@H]1CO2)C[C@H](C(C)(C)O)O4	> 100 µM (inactive)
CN(C(=O)c1ccncc1)c1ccccc1	> 100 µM (inactive)
O=C(CN(Cc1ccccc1)Cc1ccccc1)N1CCc2c([nH]c3ccccc23)C1c1cccnc1 (stereo not drawn)	4.59 µM (inactive)
CC(C)(C)C(=O)C1CC(=O)c2ccccc2C1=O (stereo not drawn)	38.2 µM (inactive)
O=C1c2cc3ccccc3cc2C2(c3ccc(Cl)cc3)NCCN12 (stereo not drawn)	28.4 µM (inactive)
S=CN1CCCCC1	> 100 µM (inactive)
N#Cc1c(N)nc(Sc2ccccc2N)c(C#N)c1-c1ccc(Cl)cc1	9.4 µM (inactive)
CSc1nc(NC2OC(COC(C)=O)C(OC(C)=O)C(OC(C)=O)C2OC(C)=O)c(/N=C\C=N/c2c(NC3OC(COC(C)=O)C(OC(C)=O)C(OC(C)=O)C3OC(C)=O)nc(SC)n(C)c2=O)c(=O)n1C (stereo not drawn)	> 100 µM (inactive)
O=C1NCCN1/N=C/c1c(Cl)n(-c2ccccc2)c2ccccc12	23.9 µM (inactive)
N#CC(NNC(=O)Cc1ccccc1)c1ccc([N+](=O)[O-])cc1 (stereo not drawn)	> 100 µM (inactive)
CC(=O)NNc1nc(C)c(C(=O)NNC(=O)C(=O)Nc2ccc([N+](=O)[O-])cc2[N+](=O)[O-])s1	68.9 µM (inactive)

The measured values listed here are drawn from ChEMBL document CHEMBL1201862.
